Numbers sourced from patent US9748593B2.

- EXPERIMENT_SUMMARY: physchem
- PROTOCOL_CONDITIONS: 60 °C, water, thermodynamic from solid
MEASUREMENT_LABEL: solubility at 1 h

SMILES_ENTRY | TEST_RESULT
CC(C)(C)c1ccc(-c2ccc3ccc4ccc(-c5cccc(-c6ccc7ccc8ccc(-c9ccc(C(C)(C)C)cc9)nc8c7n6)c5)nc4c3n2)cc1 | < 0.1 µg/mL

Recorded result, c1cnc2c(c1)ccc1ccc(-c3ccc(-c4ccc5ccc6cccnc6c5n4)cc3)nc12 , solubility at 1 h: < 0.1 µg/mL

Recorded result, c1cnc2c(c1)ccc1ccc(-c3cc(-c4ccc5ccc6cccnc6c5n4)cc(-c4ccc5ccc6cccnc6c5n4)c3)nc12 , solubility at 1 h: < 0.1 µg/mL

Recorded result, c1ccc(-c2ccc3ccc4ccc(-c5cccc(-c6ccc7ccc8ccc(-c9ccccc9)nc8c7n6)c5)nc4c3n2)cc1 , solubility at 1 h: < 0.1 µg/mL

Recorded result, c1cc(-c2cccc(-c3ccc4ccc5cccnc5c4n3)c2)cc(-c2cccc(-c3ccc4ccc5cccnc5c4n3)c2)c1 , solubility at 1 h: < 0.1 µg/mL
